Reported Kb values are given for each entry in this list.
target: H3 receptors (Cavia porcellus, UniProt Q9JI35); test: pA2 at H3 receptor (guinea pig neuronal ileum contraction assay); assay type: biochemical
Sequence (Q9JI35 whole entry): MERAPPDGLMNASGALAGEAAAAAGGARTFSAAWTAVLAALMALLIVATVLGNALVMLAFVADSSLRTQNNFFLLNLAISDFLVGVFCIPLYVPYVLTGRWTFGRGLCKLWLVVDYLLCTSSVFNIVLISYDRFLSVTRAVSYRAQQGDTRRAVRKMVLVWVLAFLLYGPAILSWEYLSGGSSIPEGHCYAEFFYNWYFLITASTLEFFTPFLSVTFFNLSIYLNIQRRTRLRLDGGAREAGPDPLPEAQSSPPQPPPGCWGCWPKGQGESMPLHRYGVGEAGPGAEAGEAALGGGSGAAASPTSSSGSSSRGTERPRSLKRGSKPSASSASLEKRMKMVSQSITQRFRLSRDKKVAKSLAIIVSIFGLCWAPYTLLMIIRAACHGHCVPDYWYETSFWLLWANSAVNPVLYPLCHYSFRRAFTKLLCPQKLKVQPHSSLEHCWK
measurement name: Kb (nM)

OC1(c2ccc(Cl)cc2)CCN(CCCc2c[nH]cn2)CC1 [compound 25]; 12.6
OC1(c2ccc(Cl)cc2)CCN(CCCCCc2c[nH]cn2)CC1 [compound 27]; 7.94
OC1(c2ccc(Cl)cc2)CCN(CCCCc2c[nH]cn2)CC1 [compound 26]; 10
Fc1ccc(C2=CCN(CCCCc3c[nH]cn3)CC2)cc1 [compound 31]; 12.6

###

biological target: H3 receptors (Cavia porcellus, UniProt Q9JI35); experiment: H3-Receptor Binding Assay (guinea pig brain membranes, [3H]R-α-methylhistamine or [3H]Nα-methylhistamine)
pKi: −log10 of the molar value.
measurement name: pKi

CC1(C(=O)Nc2ccc(OC(F)(F)F)cc2)CCN(CCCCc2c[nH]cn2)CC1 [No. 19]; 6.74
CCCN(CC1CCN(CCCCc2c[nH]cn2)CC1)S(=O)(=O)c1ccc(OC(F)(F)F)cc1 [compound 6]; 7.62
CCCNCC1CCN(CCCCc2c[nH]cn2)CC1 [No. 4]; 6.70
CCCCOc1ccc(NC(=O)C2CCN(CCCc3c[nH]cn3)CC2)cc1 [compound 14]; 8.00
O=C(Nc1cccc(Cl)c1)C1CCN(CCCCc2c[nH]cn2)CC1 [compound 9]; 8.26
O=C(NCc1ccc(Cl)cc1)C1CCN(CCCc2c[nH]cn2)CC1 [No. 12]; 7.54
O=C(c1ccc(F)cc1)C1CCN(CCCCc2c[nH]cn2)CC1 [compound 33]; 8.52
O=C(Nc1cccc(OC(F)(F)F)c1)C1CCN(CCCc2c[nH]cn2)CC1 [compound 11]; 9.00
OC1(Cc2ccccc2)CCN(CCCc2c[nH]cn2)CC1 [compound 36]; 6.18
OC1(c2ccc(Cl)cc2)CCN(CCCc2c[nH]cn2)CC1 [compound 25]; 8.22
O=C(NCc1ccc(OC(F)(F)F)cc1)C1CCN(CCCc2c[nH]cn2)CC1 [compound 13]; 7.62
c1nc(CCCCN2CCC(N3CCCCC3)CC2)c[nH]1 [compound 24]; 7.00
O=C(c1ccc(F)cc1)C1CCN(CCCc2c[nH]cn2)CC1 [compound 32]; 8.22
O=C(Nc1cccc(O)c1)C1CCN(CCCc2c[nH]cn2)CC1 [compound 16]; 6.15
CCCNC(=O)C1CCN(CCCCc2c[nH]cn2)CC1 [compound 3]; 7.28
O=C(NC1CCN(CCCc2c[nH]cn2)CC1)c1ccc(F)cc1 [No. 18]; 7.28
O=C(Nc1ccc(Cl)cc1)C1CCN(CCCCc2c[nH]cn2)CC1 [No. 7]; 7.46
O=C(Nc1ccc(Cl)c(Cl)c1)C1CCN(CCCCc2c[nH]cn2)CC1 [No. 8]; 7.57
FC(F)(F)Oc1ccc(CNC2CCN(CCCCc3c[nH]cn3)CC2)cc1 [compound 21]; 7.89

###

molecular target: H3 receptors (Cavia porcellus, UniProt Q9JI35); assay: H3-Receptor Binding Assay (guinea pig brain membranes, [3H]R-α-methylhistamine or [3H]Nα-methylhistamine)
measurement name: Ki (µM)

FC(F)(F)Oc1ccc(NCC2CCN(CCCCc3c[nH]cn3)CC2)cc1; 0.009
CCOC(=O)C1CCN(CCCCc2c[nH]cn2)CC1; 0.022
O=C(Nc1ccc(OC(F)(F)F)cc1)C1CCN(CCCCc2c[nH]cn2)CC1; 0.002
CCC(=O)C1(c2ccccc2)CCN(CCCc2c[nH]cn2)CC1; 0.5
CCCN(CC1CCN(CCCCc2c[nH]cn2)CC1)S(=O)(=O)c1ccc(Cl)cc1; 0.044
OC1(c2ccc(Cl)cc2)CCN(CCCCc2c[nH]cn2)CC1; 0.006
CC1(C(=O)Nc2ccc(OC(F)(F)F)cc2)CCCN(CCCCc2c[nH]cn2)C1 (centres unmarked); 0.17
O=C(Nc1cccc(C(F)(F)F)c1)C1CCN(CCCCc2c[nH]cn2)CC1; 0.009
Fc1ccc(OCC2CCN(CCCCc3c[nH]cn3)CC2)cc1; 0.01
Fc1ccc(C2=CCN(CCCCc3c[nH]cn3)CC2)cc1; 0.014
OC1(c2ccc(Cl)cc2)CCN(CCCCCc2c[nH]cn2)CC1; 0.005
O=C(NC1CCN(CCCc2c[nH]cn2)CC1)c1ccc(OC(F)(F)F)cc1; 0.023
O=C(Nc1ccc(O)cc1)C1CCN(CCCc2c[nH]cn2)CC1; 0.1
OC1(c2cccc(C(F)(F)F)c2)CCN(CCCCc2c[nH]cn2)CC1; 0.06

###

Reported log10 Kb values are given for each entry in this list.
biological target: H3 receptors (Cavia porcellus); assay: pA2 at H3 receptor (guinea pig neuronal ileum contraction assay); format: biochemical; conditions: HCl salt; pA2=-logEC50 as defined by J. Hey; read-out: pA2 (converted)
measurement name: log10 Kb (log10 of the value in nM)

O=C(NCc1ccc(Cl)cc1)C1CCN(CCCc2c[nH]cn2)CC1; 1.00
O=C(Nc1cccc(C(F)(F)F)c1)C1CCN(CCCCc2c[nH]cn2)CC1; -0.10
O=C(c1ccc(F)cc1)C1CCN(CCCCc2c[nH]cn2)CC1; 0.80
O=C(Nc1ccc(OC(F)(F)F)cc1)C1CCN(CCCCc2c[nH]cn2)CC1; -0.30
O=C(Nc1cccc(Cl)c1)C1CCN(CCCCc2c[nH]cn2)CC1; 0.10
CC1(C(=O)Nc2ccc(OC(F)(F)F)cc2)CCN(CCCCc2c[nH]cn2)CC1; 1.60
c1nc(CCCCN2CCC(N3CCCCC3)CC2)c[nH]1; 2.80
O=C(Nc1cccc(OC(F)(F)F)c1)C1CCN(CCCc2c[nH]cn2)CC1; -0.20
O=C(NCc1ccc(OC(F)(F)F)cc1)C1CCN(CCCc2c[nH]cn2)CC1; 1.50
O=C(c1ccc(F)cc1)C1CCN(CCCc2c[nH]cn2)CC1; 1.30

###

target: H3 receptors (Cavia porcellus); experiment: H3-Receptor Binding Assay (guinea pig brain membranes, [3H]R-α-methylhistamine or [3H]Nα-methylhistamine); settings: HCl salt; guinea pig brain membranes, pH 7.5, 30° C., 30 min
pKi: −log10 of the molar value.
measurement name: pKi

OCCN1CCC(CCCC2CCN(CCCc3c[nH]cn3)CC2)CC1; 7.92
OCCN1CCC(CCCC2CCN(CCCCc3c[nH]cn3)CC2)CC1; 8.15
